Molecular target: dipeptidyl peptidase-IV (DPPIV) (Homo sapiens (Human))
Sequence (P27487 whole entry, species assumed): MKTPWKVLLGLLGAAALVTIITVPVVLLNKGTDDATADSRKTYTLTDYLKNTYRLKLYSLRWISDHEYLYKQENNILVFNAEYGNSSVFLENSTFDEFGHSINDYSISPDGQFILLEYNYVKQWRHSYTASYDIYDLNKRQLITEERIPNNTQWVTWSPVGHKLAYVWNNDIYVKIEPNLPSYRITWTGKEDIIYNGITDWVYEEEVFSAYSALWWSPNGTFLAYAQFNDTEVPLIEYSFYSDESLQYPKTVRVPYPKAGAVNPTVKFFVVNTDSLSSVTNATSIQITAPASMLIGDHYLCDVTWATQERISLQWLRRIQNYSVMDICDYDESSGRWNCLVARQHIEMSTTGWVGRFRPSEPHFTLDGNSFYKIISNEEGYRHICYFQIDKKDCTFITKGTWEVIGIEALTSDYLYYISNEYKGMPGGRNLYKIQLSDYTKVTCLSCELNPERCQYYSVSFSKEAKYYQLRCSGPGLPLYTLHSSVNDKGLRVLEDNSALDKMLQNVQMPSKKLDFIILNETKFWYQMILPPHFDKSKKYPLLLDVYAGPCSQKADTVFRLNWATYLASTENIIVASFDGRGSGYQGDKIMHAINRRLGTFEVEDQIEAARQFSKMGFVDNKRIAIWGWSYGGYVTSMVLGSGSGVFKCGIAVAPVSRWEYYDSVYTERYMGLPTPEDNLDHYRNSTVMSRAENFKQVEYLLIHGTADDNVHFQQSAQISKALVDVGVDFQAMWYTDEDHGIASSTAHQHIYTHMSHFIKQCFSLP
Assay: dipeptidyl peptidase-IV (DPPIV) assay
Type: biochemical
Conditions: Table 10, first scaffold; read-out: IC50 against DPPIV (converted)
Label key: 1.0 means IC50 under 100 µM; 0.0 means IC50 of 100 µM or more.

{"columns": ["Compound", "Category"],
 "data": [
  ["CC(C)=CCOc1ccc(C2=C(CC(C)C)C(=O)NC2=O)cc1 [Compound 2]", 0.0],
  ["CC(C)=CCOc1ccc(C2=C(CC(C)C)C(=O)N(O)C2=O)cc1 [Compound 3]", 0.0],
  ["CC(C)=CCOc1ccc(C2=C(CC(C)C)C(=O)N(C(Cc3ccccc3)C(=O)O)C2=O)cc1 (stereo not drawn) [Compound A2]", 1.0],
  ["CC(C)=CCOc1ccc(C2=C(CC(C)C)C(=O)N(C(CC(C)C)C(=O)O)C2=O)cc1 (stereo not drawn) [Compound A1]", 0.0],
  ["CC(C)=CCOc1ccc(C2=C(CC(C)C)C(=O)OC2=O)cc1 [Compound 1]", 1.0]
]}
